Hey, just so you know, these numbers are from patent US20240425606A1.

TARGET_DESC: T1, IL-11R on STAT3 Reporter (Luciferase)-HEK293 cells (UniProt Q14626 23-422)
T1 sequence (looked up): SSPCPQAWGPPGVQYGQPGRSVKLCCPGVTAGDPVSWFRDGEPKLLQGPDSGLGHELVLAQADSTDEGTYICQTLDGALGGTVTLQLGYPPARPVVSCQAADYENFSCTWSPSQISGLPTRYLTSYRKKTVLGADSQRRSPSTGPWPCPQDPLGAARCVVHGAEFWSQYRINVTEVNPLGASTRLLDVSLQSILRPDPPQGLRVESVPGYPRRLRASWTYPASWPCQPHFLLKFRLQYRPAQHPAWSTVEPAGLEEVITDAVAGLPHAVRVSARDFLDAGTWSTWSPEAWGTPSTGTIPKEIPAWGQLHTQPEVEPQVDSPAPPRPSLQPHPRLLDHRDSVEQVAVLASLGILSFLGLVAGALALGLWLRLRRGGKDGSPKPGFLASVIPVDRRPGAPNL
ASSAY: cell-based or functional assay
QUANTITY: IC50, STAT3 luciferase reporter assay (HEK293), inhibiting IL-11, Assay 1 (µg/mL)
Write the number in µg/mL without appending the unit.

# BINDER, RECORDED_RESULT
records = [
    ("mAb12 (antibody, V domains shown, Expressed as human IgG4 (S228P EU)) VH: EVQLLESGGGLVQPGGSLRLSCAASGFTFSWYSMTWVRQAPGKGLEWVSSIVPYGDLTQYADSVKGRFTISRDNSKNTLYLQMNSLRAEDTAVYYCAKGPGWYSFDLWGRGTLVTVSS VL: DIQMTQSPSSLSASVGDRVTITCQASQDINNYLNWYQQKPGKAPKLLIYDASNLQTGVPSRFSGSGSGTDFTFTISSLQPEDIATYYCQQHESQSPTFGPGTKVDIK", 0.42),
    ("mAb13 (antibody, V domains shown, Expressed as human IgG4 (S228P EU)) VH: EVQLLESGGGLVQPGGSLRLSCAASGFTFSWYSMTWVRQAPGKGLEWVSSIVPYGDLTQYADSVKGRFTISRDNSKNTLYLQMNSLRAEDTAVYYCAKPEDWGRFDLWGRGTLVTVSS VL: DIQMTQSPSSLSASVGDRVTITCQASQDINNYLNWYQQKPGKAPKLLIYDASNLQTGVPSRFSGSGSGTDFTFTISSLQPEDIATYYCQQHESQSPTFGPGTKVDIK", 0.05),
]

Measured IC50, STAT3 luciferase reporter assay (HEK293), inhibiting IL-11, Assay 1 of mAb14 (antibody, V domains shown, Expressed as human IgG4 (S228P EU)) VH: EVQLLESGGGLVQPGGSLRLSCAASGFTFSWYSMTWVRQAPGKGLEWVSSIVPYGDLTQYAESVKGRFTISRDNSKNTLYLQMNSLRAEDTAVYYCAKGPGWGSFDLWGRGTLVTVSS VL: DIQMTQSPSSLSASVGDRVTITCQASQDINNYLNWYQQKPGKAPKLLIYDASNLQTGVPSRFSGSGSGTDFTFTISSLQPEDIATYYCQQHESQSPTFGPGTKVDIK : 0.39
